Cited source: paper PMC6368843

targetDesc: T1, Purβ R159A/R267A (Mus musculus, UniProt O35295 1-324, R159A;R267A)
T1 sequence: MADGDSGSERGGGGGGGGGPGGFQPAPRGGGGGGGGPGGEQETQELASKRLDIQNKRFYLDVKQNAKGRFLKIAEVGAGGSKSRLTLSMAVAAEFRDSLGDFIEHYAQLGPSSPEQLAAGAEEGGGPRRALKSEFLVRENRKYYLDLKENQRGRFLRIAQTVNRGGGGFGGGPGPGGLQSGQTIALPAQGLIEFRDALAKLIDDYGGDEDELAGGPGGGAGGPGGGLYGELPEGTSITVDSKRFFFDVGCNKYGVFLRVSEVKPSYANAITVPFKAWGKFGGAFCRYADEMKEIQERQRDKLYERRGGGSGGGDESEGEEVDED
measurementDescription: ELISA
measuredAttribute: pKd
Numbers only, as −log10 of the molar value.

INPUT: // query pKd value for entry GGGAGCAGAACAGAGGAATGCAGTGGAAGAGA (ssDNA) [PE32-bF]
OUTPUT: 9.22
